- PROCEDURE_SUMMARY: chemical genetic growth profiling, strain panel (AID 1159580);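 note: tested at 20 µM; growth read once vehicle control cultures reached saturation at 30 °C; 1 = growth at the plate median or of vehicle wells; lower values mean less growth of the strain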
- CONDITION_PARAMETERS: S. cerevisiae deletion strains, growth OD, locus YLR330W, strain CHS5, hits give low values
The whole screen tested about 5,500 compounds, of which about 2,000 (36%) were called active. Not shown: some 18% with an inconclusive outcome. The list shows a part of the results.
// reported normalized growth per item
Just the number, please.

Use these answered entries as a reference point.
INSERT INTO results (compound, observable, meas_value) VALUES
  ('CN(C)CCc1c[nH]c2ccc(CS(=O)(=O)N3CCCC3)cc12', 'normalized growth', 0.988),
  ('CC(=O)Oc1cc2c(c(C)c1OC(C)=O)CC1OC13C2(C)CCC1(C)C2CC(C)(C(=O)O)CCC2(C)CCC13C (centres undefined)', 'normalized growth', 1.01),
  ('O=C(OC[C@H]1O[C@H](OC(=O)c2cc(O)c(O)c(OC(=O)c3cc(O)c(O)c(O)c3)c2)[C@H](OC(=O)c2cc(O)c(O)c(OC(=O)c3cc(O)c(O)c(O)c3)c2)[C@@H](OC(=O)c2cc(O)c(O)c(OC(=O)c3cc(O)c(O)c(O)c3)c2)[C@@H]1OC(=O)c1cc(O)c(O)c(OC(=O)c2cc(O)c(O)c(O)c2)c1)c1cc(O)c(O)c(OC(=O)c2cc(O)c(O)c(O)c2)c1', 'normalized growth', 0.0805),
  ('CC(=O)OCC1=C(C(=O)O)N2C(=O)[C@@H](NC(=O)CCCC(N)C(=O)O)C2SC1 (some centres undefined)', 'normalized growth', 1.01),
  ('COc1ccc(C(=O)c2ccccc2)c(O)c1O', 'normalized growth', 0.947),
  ('COc1ccc(C(=O)O)c(O)c1OC', 'normalized growth', 1.01);

## Input Write down normalized growth measured for item `CCOC([O-])=Nc1c[n+](N2CCOCC2)no1`
## Output 1.01

## Input Write down normalized growth measured for item `CC(=O)Oc1cccc2c1C(=O)c1c(OC(C)=O)cc(C(=O)O)cc1C2=O`
## Output 1.01

## Input Write down normalized growth measured for item `COc1ccc(C2C(=O)c3ccccc3C2=O)cc1`
## Output 1

## Input Write down normalized growth measured for item `CC(=O)Oc1cccc(C(=O)O)c1OC(C)=O`
## Output 1.01
